Give T/C for every item shown.
Test system: L1210 leukemia ip in BDF1 mice, survival T/C
Test: NCI In Vivo Anticancer Drug Screen. Data for tumor model L1210 Leukemia (intraperitoneal) in B6D2F1 (BDF1) mice
Settings: endpoint: mean survival time; dose: 100.0 mg/kg/injection; schedule: Q01DX009 (ip); vehicle: saline; higher = longer survival
Toxic doses and inconclusive results are not listed.

Solved entries:
>  <compound>
COc1ccccc1C(=O)N/N=C\c1ccc(Cl)cc1Cl

>  <obsValue>
111 % of control

$$$$
>  <compound>
COc1cc(Cl)ccc1NC(=O)Oc1ccc(C(=O)OCc2ccccc2)cc1

>  <obsValue>
103 % of control

$$$$
>  <compound>
Cc1cccc(CN)n1

>  <obsValue>
98 % of control

$$$$
>  <compound>
CC(C)OC(=S)S

>  <obsValue>
93 % of control

$$$$
>  <compound>
CC(N)C(=O)NCC(=O)NCC(=O)O (stereo not given)

>  <obsValue>
103 % of control

$$$$

For each listed entry, give its T/C.
1. CCN(CC)CCCC(C)Nc1ncnc2c1C(c1ccccc1)C(C)(C)O2 (stereo not given)
2. C1CN2CCOC2O1

Result:
1. 106 % of control
2. 101 % of control
